MEASUREMENT TARGET: Carbonic anhydrase 4 (Bos taurus, UniProt Q95323)
Sequence (Q95323 whole entry): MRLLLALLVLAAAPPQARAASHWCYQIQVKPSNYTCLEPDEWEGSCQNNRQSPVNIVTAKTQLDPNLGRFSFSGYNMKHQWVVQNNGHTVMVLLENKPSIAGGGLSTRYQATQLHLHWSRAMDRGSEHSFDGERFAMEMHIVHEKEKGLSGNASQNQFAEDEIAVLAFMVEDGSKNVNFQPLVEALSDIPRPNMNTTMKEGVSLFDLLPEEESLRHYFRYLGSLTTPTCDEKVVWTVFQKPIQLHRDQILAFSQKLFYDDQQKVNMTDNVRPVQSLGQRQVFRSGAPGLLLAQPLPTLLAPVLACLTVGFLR
pKi: −log10 of the molar value.
Across several studies, compounds have been characterized by their pKi on Carbonic anhydrase 4 (Bos taurus, UniProt Q95323); a selection follows.
READOUT KIND: pKi

[[record]]
smiles_string = "NS(=O)(=O)c1nc2ccc(NC(=O)CN(CC(=O)O)CC(=O)O)cc2s1"
measurement_target = "Carbonic anhydrase 4 (Bos taurus, UniProt Q95323)"
readout_kind = "pKi"
observed_measurement = 7.89

[[record]]
smiles_string = "CNCC(=O)NCCc1ccc(S(N)(=O)=O)cc1"
measurement_target = "Carbonic anhydrase 4 (Bos taurus, UniProt Q95323)"
readout_kind = "pKi"
observed_measurement = 7.15

[[record]]
smiles_string = "CN(CC(=O)Nc1cc(Cl)c(S(N)(=O)=O)cc1S(N)(=O)=O)C(=N)N"
measurement_target = "Carbonic anhydrase 4 (Bos taurus, UniProt Q95323)"
readout_kind = "pKi"
observed_measurement = 7.38


P. C[C@H](CCC(=O)Nc1ccc(S(N)(=O)=O)cc1Br)[C@H]1CC[C@H]2[C@@H]3CC[C@@H]4C[C@H](O)CC[C@]4(C)[C@H]3CC[C@]12C
Q. NS(=O)(=O)c1ccc(CCOS(=O)(=O)c2c(F)c(F)c(F)c(F)c2F)cc1
R. C[C@H](CCC(=O)Oc1ccc2nc(S(N)(=O)=O)sc2c1)[C@H]1CC[C@H]2[C@@H]3[C@@H](O)C[C@@H]4C[C@H](O)CC[C@]4(C)[C@H]3CC[C@]12C
S. NCCCC(=O)OCc1ccc(S(N)(=O)=O)cc1
T. CC(C)c1cc(-c2ccccc2)cc(C(C)C)[n+]1CC(=O)Nc1ccccc1S(N)(=O)=O
QUERY: Rank descending by pKi. Please respond with the labels ordered as the question requires.
RESULT: R, P, Q, S, T
(R: 8.22, P: 7.28, Q: 6.99, S: 6.74, T: 6.46)

----------
MEASUREMENT TARGET: Carbonic anhydrase 4 (Bos taurus, UniProt Q95323)
Sequence (Q95323 whole entry): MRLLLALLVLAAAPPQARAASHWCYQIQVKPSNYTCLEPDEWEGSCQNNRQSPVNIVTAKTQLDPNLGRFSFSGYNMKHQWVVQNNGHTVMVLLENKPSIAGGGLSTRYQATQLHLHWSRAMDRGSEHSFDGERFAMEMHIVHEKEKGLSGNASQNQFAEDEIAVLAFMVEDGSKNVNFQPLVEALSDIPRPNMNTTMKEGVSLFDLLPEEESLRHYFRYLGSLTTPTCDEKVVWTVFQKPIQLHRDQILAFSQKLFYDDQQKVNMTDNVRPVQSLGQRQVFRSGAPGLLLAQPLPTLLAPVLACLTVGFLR
Across several studies, compounds have been characterized by their Ki on Carbonic anhydrase 4 (Bos taurus, UniProt Q95323); a selection follows.
READOUT KIND: Ki (nM)

Record excerpt, results attached:
[[record]]
smiles_string = "NS(=O)(=O)c1nnc(NC(=O)C(F)(F)C(F)(F)C(F)(F)C(F)(F)C(F)(F)C(F)(F)C(F)(F)C(F)(F)F)s1"
observed_measurement = 13

[[record]]
smiles_string = "CN(CC(=O)NCc1ccc(S(N)(=O)=O)cc1)C(=N)N"
observed_measurement = 71

[[record]]
smiles_string = "NS(=O)(=O)c1nc2ccc(OS(=O)(=O)C(F)(F)C(F)(F)C(F)(F)C(F)(F)F)cc2s1"
observed_measurement = 7

[[record]]
smiles_string = "NCC(=O)NCC(=O)Nc1nccc(Nc2ccc(S(N)(=O)=O)cc2)n1"
observed_measurement = 69

[[record]]
smiles_string = "NS(=O)(=O)c1cc(S(N)(=O)=O)c(NSC(=S)N2CCOCC2)cc1Cl"
observed_measurement = 90


P. Cn1nc(S(N)(=O)=O)s/c1=N/C(=O)CNCCNCC(=O)O
Q. NS(=O)(=O)c1cc(S(N)(=O)=O)c(NC(=O)CN(CCOCCOCCN(CC(=O)O)CC(=O)Nc2cc(Cl)c(S(N)(=O)=O)cc2S(N)(=O)=O)CC(=O)O)cc1Cl
QUERY: Between the two listed entries P and Q , which has its Ki at the higher number? Respond with the label that goes with your answer.
RESULT: P
